From: ChEMBL document CHEMBL1155950

# ASSAY PROCEDURE: Antiproliferative activity against human WI38 cells after 72 hrs by MTT assay
# Assay type: cell-based
# CONDITION INFO: WI-38, 72 h
READOUT NAME: IC50

Consider the following illustrative entries.
// `N=C(NC1CCCCC1)c1ccc2nc(/C=C/c3ccco3)[nH]c2c1` : IC50 value = > 100 µM

Field IC50 (entry `C(=C\c1cccs1)/c1nc2ccc(C3=NCCN3)cc2[nH]1.Cl` ) reads 29 µM

Given item `C(=C\c1ccco1)/c1nc2ccc(C3=NCCN3)cc2[nH]1` , the value recorded as its IC50 is > 100 µM

Lab note: next compound to report on.
Documented IC50 of `N=C(N)c1ccc2nc(/C=C/c3ccco3)[nH]c2c1` : > 100 µM
